tgt: T1, human high affinity trimeric IL-2 receptor (CD25/CD122/CD132) (human, UniProt P01589 22-272; P14784 27-551; P31785 23-369)
T1 sequence 1: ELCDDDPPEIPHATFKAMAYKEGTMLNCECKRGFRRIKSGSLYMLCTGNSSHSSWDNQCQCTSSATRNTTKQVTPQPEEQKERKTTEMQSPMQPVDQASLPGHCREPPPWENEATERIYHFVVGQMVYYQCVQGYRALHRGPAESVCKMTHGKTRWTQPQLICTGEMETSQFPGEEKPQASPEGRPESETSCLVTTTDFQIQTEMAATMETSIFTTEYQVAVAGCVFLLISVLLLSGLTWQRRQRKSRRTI
T1 sequence 2: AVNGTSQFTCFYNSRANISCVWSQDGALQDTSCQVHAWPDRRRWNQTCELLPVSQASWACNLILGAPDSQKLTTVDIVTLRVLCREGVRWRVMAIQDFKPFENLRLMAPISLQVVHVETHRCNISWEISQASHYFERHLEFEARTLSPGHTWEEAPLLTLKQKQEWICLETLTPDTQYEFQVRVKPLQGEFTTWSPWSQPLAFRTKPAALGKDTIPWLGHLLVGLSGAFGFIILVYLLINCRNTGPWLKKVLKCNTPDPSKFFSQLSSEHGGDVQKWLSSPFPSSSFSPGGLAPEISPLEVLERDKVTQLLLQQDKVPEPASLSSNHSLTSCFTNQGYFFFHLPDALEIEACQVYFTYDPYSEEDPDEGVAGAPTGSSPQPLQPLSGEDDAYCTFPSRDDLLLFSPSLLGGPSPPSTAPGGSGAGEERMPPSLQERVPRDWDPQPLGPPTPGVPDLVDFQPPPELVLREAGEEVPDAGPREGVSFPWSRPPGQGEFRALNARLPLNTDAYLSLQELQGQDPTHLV
T1 sequence 3: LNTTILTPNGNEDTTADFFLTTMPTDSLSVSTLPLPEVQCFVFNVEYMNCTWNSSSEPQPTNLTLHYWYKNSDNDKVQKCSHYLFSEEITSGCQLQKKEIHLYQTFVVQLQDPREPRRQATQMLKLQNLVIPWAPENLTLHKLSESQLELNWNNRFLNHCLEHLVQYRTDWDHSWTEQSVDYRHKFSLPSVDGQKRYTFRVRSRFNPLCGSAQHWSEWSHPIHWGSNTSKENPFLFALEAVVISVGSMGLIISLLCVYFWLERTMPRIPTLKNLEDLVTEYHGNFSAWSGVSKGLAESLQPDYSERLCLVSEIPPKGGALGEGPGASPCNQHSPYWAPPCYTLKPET
method.description: cell-based or functional assay
metric: pSTAT5 ratio YT CD25/YT, dilution factor 32, lower table

- binder: "YEH (ligand) cytokine: APTSSSTKKTQLQLEHLYLDLEMILNGINNYKNPKLTRMLTFKFYMPKKATELKHLQCLEEELKPLEEVLNLAQSKNFHLRPRDLISNINVIVLELKGSETTFMCEYADETATIVEFLNRWITFCHSIISTLT"
  measured.result: 1.5
- binder: "RLH (ligand) cytokine: APTSSSTKKTQLQLEHLRLDLLMILNGINNYKNPKLTRMLTFKFYMPKKATELKHLQCLEEELKPLEEVLNLAQSKNFHLRPRDLISNINVIVLELKGSETTFMCEYADETATIVEFLNRWITFCHSIISTLT"
  measured.result: 3.3
- binder: "HEH (ligand) cytokine: APTSSSTKKTQLQLEHLHLDLEMILNGINNYKNPKLTRMLTFKFYMPKKATELKHLQCLEEELKPLEEVLNLAQSKNFHLRPRDLISNINVIVLELKGSETTFMCEYADETATIVEFLNRWITFCHSIISTLT"
  measured.result: 5.6
